# TARGET OF ASSAY: RNA-directed RNA polymerase (Hepacivirus hominis, UniProt O39930)
# Sequence (O39930 whole entry): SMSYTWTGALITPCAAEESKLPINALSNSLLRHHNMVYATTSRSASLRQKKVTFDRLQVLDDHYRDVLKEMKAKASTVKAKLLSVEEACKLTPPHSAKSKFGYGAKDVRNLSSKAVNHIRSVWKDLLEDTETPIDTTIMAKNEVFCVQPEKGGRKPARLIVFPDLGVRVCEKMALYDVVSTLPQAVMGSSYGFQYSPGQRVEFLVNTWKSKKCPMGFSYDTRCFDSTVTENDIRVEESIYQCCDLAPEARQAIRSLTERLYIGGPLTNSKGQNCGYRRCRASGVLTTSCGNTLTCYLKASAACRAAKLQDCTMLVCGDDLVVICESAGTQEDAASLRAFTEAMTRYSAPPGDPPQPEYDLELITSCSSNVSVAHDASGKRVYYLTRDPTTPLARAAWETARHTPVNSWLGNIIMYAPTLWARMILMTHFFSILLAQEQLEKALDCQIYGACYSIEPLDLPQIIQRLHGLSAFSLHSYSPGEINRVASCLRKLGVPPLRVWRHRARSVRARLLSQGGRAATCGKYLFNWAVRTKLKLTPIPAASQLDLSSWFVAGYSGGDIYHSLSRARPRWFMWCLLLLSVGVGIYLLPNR
# PROTOCOL DESCRIPTION: Inhibition of HCV BK NS5B deltaC55 RNA dependent RNA polymerase
PROPERTY LABEL: IC50 (µM)

[[record]]
smiles_str = "O=C(O)c1ccc2c(c1)nc(-c1ccccc1)n2C1CCCCC1"
property_label = "IC50"
reported_value = 6.5

[[record]]
smiles_str = "O=C(O)c1cc2nc(-c3ccccc3)n(C3CCCCC3)c2s1"
property_label = "IC50"
reported_value = 17.2

[[record]]
smiles_str = "O=C(O)c1cc2[nH]c(-c3ccccc3)c(C3CCCCC3)c2s1"
property_label = "IC50"
reported_value = 0.066

[[record]]
smiles_str = "CN(C)C(=O)Cn1c(-c2ccccc2)c(C2CCCCC2)c2sc(C(=O)O)cc21"
property_label = "IC50"
reported_value = 0.058

[[record]]
smiles_str = "O=C(O)c1ccc2c(C3CCCCC3)c(-c3ccccc3)[nH]c2n1"
property_label = "IC50"
reported_value = 0.15

[[record]]
smiles_str = "O=C(O)c1cc2c(nc(-c3ccccc3)n2C2CCCCC2)s1"
property_label = "IC50"
reported_value = 13.8

[[record]]
smiles_str = "COc1ccc(-c2nc(/C=C/C(=O)O)cn2C2CCCCC2)cc1"
property_label = "IC50"
reported_value = 77.3

[[record]]
smiles_str = "O=C(O)c1c[nH]c2c(C3CCCCC3)c(-c3ccccc3)nc-2c1"
property_label = "IC50"
reported_value = 1.9


(I) CN(C)C(=O)Cn1c(-c2ccccc2)c(C2CCCCC2)c2cc(C(=O)O)sc21
(II) CN(C)C(=O)Cn1c(-c2ccccc2)c(C2CCCCC2)c2ncc(C(=O)O)cc21
Qu. I need your help: which of the pair I , II has higher IC50? Could you answer with the label of the item you picked?
Ans. II

---

# TARGET OF ASSAY: RNA-directed RNA polymerase (Hepacivirus hominis)
# PROTOCOL DESCRIPTION: Inhibition of HCV BK NS5B deltaC55 RNA dependent RNA polymerase
PROPERTY LABEL: IC50 (µM)

(a) O=C(O)c1ccc2nc(-c3ccccc3)c(C3CCCCC3)cc2c1
(b) CN(C)C(=O)Cn1c(-c2ccccc2)c(C2CCCCC2)c2ccc(C(=O)O)nc21
Qu. Lower IC50: a or b ? Could you answer with the label of the item you picked?
Ans. b
(b: 0.32 µM, a: 4.8 µM)

(a) O=C(O)c1ccc2c(C3CCCCC3)c(-c3ccccc3)cn2c1
(b) COc1ccc(-c2nc3cc(C(=O)O)ccc3n2C2CCCCC2)cc1
Qu. Lower IC50: a or b ? Could you answer with the label of the item you picked?
Ans. a
